- targetSystem: T1, 4H2576-bA
- T1 chain: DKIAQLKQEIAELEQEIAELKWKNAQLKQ
- method: two-hybrid library CCNG1;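 further: natural log of median RNA to DNA barcode read ratio; higher means stronger binding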
Binary classification by interaction score, with 0.9 as an inclusive lower bound for MET; all other cases are NOT MET.

Study these solved cases before continuing.
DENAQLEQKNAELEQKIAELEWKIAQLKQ [4H1446-bA] : MET
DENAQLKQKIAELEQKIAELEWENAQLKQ [4H1828-bA] : NOT MET
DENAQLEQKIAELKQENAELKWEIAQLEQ [4H1369-bA] : NOT MET
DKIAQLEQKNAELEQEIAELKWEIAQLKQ [4H2442-bA] : NOT MET
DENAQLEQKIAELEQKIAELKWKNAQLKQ [4H1328-bA] : MET
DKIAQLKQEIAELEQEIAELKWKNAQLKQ [4H2576-bA] : MET
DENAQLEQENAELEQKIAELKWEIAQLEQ [4H1193-bA] : MET

Ask: # check: interaction score of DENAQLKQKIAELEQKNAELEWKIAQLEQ [4H1845-bA] is greater than or equal to 0.9
Reply: NOT MET

Sourced from paper PMC10397247
